Test system: human APOE RNA
Assay: Activity in APOE C57BL/6NTac-Apoeem7250 knock-in mice, single ICV bolus, 20 weeks (Example 13)
Assay type: in vivo
Conditions: spinal cord; single ICV bolus 300 μg; 20 weeks post treatment; normalized to mouse Ppia
Strand notation (5' to 3'): a small letter for the sugar, then the base; units joined by * are phosphorothioate-linked, units joined directly phosphodiester-linked; [ ] holds rarer units or linkages, { } end groups; capitals alone tell only the bases. [ms] = mesyl phosphoramidate linkage; e = 2'-O-(2-methoxyethyl) (MOE); k = constrained ethyl (cEt); [5mC] = 5-methylcytosine; d = 2'-deoxy (DNA)
Measured Parameter: APOE RNA (% control) Spinal Cord
Give your result in % control as a bare value.

Consider the worked cases shown below.
Substance	Reported Result
1778111: modified oligonucleotide complementary to human APOE RNA (eA*e[5mC]eTeTeG*kG*dT*dG[ms]dA[ms]dA*dT*d[5mC]*dT*dT*dT*dA[ms]eTeT*eA*eA; antisense) [compound 1778111]	25
1757561: mixed MOE/cEt gapmer TTGGTGAATCTTTATTAA, sugar eeekkddddddddkeeee, linkages soossssssssssooss (eT*eTeGkG*kT*dG*dA*dA*dT*d[5mC]*dT*dT*dT*kAeTeT*eA*eA) [compound 1757561]	64
1779970 (e[5mC]*eTeTkG*kG*eT*dG[ms]dA[ms]dA*dT*d[5mC]*dT*dT*dT*dA*dT*eT*eA*eA*eA; antisense) [Compound 1779970]	35

# input substance: Compound No. 1517853: comparator of WO 2022/066956; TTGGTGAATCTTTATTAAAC, sugar eeeeeddddddddddeeeee, linkages sooosssssssssssooss (MOE gapmer, mixed PS/PO linkages, chemistry not fully specified) [reference compound] ; wanted: its APOE RNA (% control) Spinal Cord
98

Entry source: patent US20250353873A1
